EXPERIMENTAL_SYSTEM: T1, C-terminal human Regnase-1 (amino acids 301 to 599) with N-terminal FLAG tag and C-terminal BirA recognition … (human, UniProt Q5D1E8 301-599)
T1 sequence: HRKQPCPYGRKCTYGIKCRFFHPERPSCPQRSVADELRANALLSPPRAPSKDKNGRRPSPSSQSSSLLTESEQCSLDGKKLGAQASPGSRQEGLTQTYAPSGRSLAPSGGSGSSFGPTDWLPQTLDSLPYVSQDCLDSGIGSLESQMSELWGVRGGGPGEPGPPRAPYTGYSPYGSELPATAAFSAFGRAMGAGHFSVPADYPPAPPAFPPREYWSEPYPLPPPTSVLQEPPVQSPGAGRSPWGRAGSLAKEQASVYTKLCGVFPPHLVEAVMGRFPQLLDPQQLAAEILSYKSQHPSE
TEST_PROTOCOL: cell-based or functional assay
Positions of bridges follow the written chain, without caps; N, C: chain ends. Non-standard residues stand in square brackets, D forms with d. *: point of attachment. Pyrrolidide = C1CCN(*)C1; dNMeA = CN[C@H](C)C(=O)O
Assign True whenever 50% inhibition concentration, Regnase-1 phosphorylation by IKKβ (AlphaScreen) does not fall below 30 µM; assign False whenever it does.

Some entries whose results are on file:
>>> classification("XNSWYINIWGHD (HELM PEPTIDE1{[meA].N.S.W.Y.I.N.I.W.G.H.D.[C1CCN([*:1])C1]}$PEPTIDE1,PEPTIDE1,1:R1-12:R3$$$V2.0; SMILES CC[C@H](C)[C@@H]1NC(=O)[C@H](CC(N)=O)NC(=O)[C@H]([C@@H](C)CC)NC(=O)[C@H](Cc2ccc(O)cc2)NC(=O)[C@H](Cc2c[nH]c3ccccc23)NC(=O)[C@H](CO)NC(=O)[C@H](CC(N)=O)NC(=O)[C@H](C)N(C)C(=O)C[C@@H](C(=O)N2CCCC2)NC(=O)[C@H](Cc2c[nH]cn2)NC(=O)CNC(=O)[C@H](Cc2c[nH]c3ccccc23)NC1=O) [PP15]")
"False"
>>> classification("XDIWFDYWDYD (HELM PEPTIDE1{[meA].D.I.W.F.D.Y.W.D.Y.D.[C1CCN([*:1])C1]}$PEPTIDE1,PEPTIDE1,1:R1-11:R3$$$V2.0; SMILES CC[C@H](C)[C@@H]1NC(=O)[C@H](CC(=O)O)NC(=O)[C@H](C)N(C)C(=O)C[C@@H](C(=O)N2CCCC2)NC(=O)[C@H](Cc2ccc(O)cc2)NC(=O)[C@H](CC(=O)O)NC(=O)[C@H](Cc2c[nH]c3ccccc23)NC(=O)[C@H](Cc2ccc(O)cc2)NC(=O)[C@H](CC(=O)O)NC(=O)[C@H](Cc2ccccc2)NC(=O)[C@H](Cc2c[nH]c3ccccc23)NC1=O) [PP18]")
"False"
>>> classification("XNSWYKIWGLD (HELM PEPTIDE1{[meA].N.S.W.Y.K.I.W.G.L.D.[C1CCN([*:1])C1]}$PEPTIDE1,PEPTIDE1,1:R1-11:R3$$$V2.0; SMILES CC[C@H](C)[C@@H]1NC(=O)[C@H](CCCCN)NC(=O)[C@H](Cc2ccc(O)cc2)NC(=O)[C@H](Cc2c[nH]c3ccccc23)NC(=O)[C@H](CO)NC(=O)[C@H](CC(N)=O)NC(=O)[C@H](C)N(C)C(=O)C[C@@H](C(=O)N2CCCC2)NC(=O)[C@H](CC(C)C)NC(=O)CNC(=O)[C@H](Cc2c[nH]c3ccccc23)NC1=O) [PP21]")
"True"
>>> classification("XNSWYRIWGLD (HELM PEPTIDE1{[meA].N.S.W.Y.R.I.W.G.L.D.[C1CCN([*:1])C1]}$PEPTIDE1,PEPTIDE1,1:R1-11:R3$$$V2.0; SMILES CC[C@H](C)[C@@H]1NC(=O)[C@H](CCCNC(=N)N)NC(=O)[C@H](Cc2ccc(O)cc2)NC(=O)[C@H](Cc2c[nH]c3ccccc23)NC(=O)[C@H](CO)NC(=O)[C@H](CC(N)=O)NC(=O)[C@H](C)N(C)C(=O)C[C@@H](C(=O)N2CCCC2)NC(=O)[C@H](CC(C)C)NC(=O)CNC(=O)[C@H](Cc2c[nH]c3ccccc23)NC1=O) [PP22]")
"True"

### Prompt Answer whether 50% inhibition concentration, Regnase-1 phosphorylation by IKKβ (AlphaScreen) of [dNMeA]TYGHSSWYKIWD-Pyrrolidide (lactam N-13) [PP9] is greater than or equal to 30 µM.
### Response False
